Tested on: crabgrass
Test: Test B pre/postemergence crabgrass
Format: in vivo, Digitaria sanguinalis
Details: Rate 500 g/ha, Preemergence; scale 0 to 10 (0 no effect, 10 complete control)
Measurement Type: Crabgrass plant response rating
No unit in the answer, please; the number alone is enough.

Example entries begin here.
[[record]]
molecule = "C#CC(C)n1c(=O)on(C(=O)N(c2ccc(F)cc2)C(C)C)c1=O (stereo not shown) [Compound 763]"
reported_value = 9

[[record]]
molecule = "C#CCCn1c(=O)on(C(=O)N(c2ccc(F)cc2F)C(C)C)c1=O [Compound 744]"
reported_value = 10

[[record]]
molecule = "COC(CCl)n1c(=O)on(C(=O)N(c2ccc(F)cc2F)C(C)C)c1=O (stereo not shown) [Compound 737]"
reported_value = 10


Consider the additional molecule presented here.
For the record CC(C)N(C(=O)n1oc(=O)n(CCC(=O)N(C)C)c1=O)c1ccc(Cl)cc1 [Compound 719] , what value of Crabgrass plant response rating is listed for crabgrass? 9

---

Item-by-item account of Rape plant response rating
Tested on: rape
Experiment: Test B pre/postemergence rape
Assay type: in vivo, Brassica napus
Conditions: Rate 62 g/ha, Postemergence; scale of 0 to 10 where 0 is no effect and 10 is complete control
Reply: number alone, nothing else.

Before answering, review these 6 worked examples.
[[record]]
substance_smiles = "Cc1nsc(Cl)c1Cn1c(=O)on(C(=O)N(c2ccc(F)cc2)C(C)C)c1=O"
measurement_type = "Rape plant response rating"
reported_value = 0

[[record]]
substance_smiles = "CC(C)N(C(=O)n1oc(=O)n(Cc2cccs2)c1=O)c1ccccc1"
measurement_type = "Rape plant response rating"
reported_value = 0

[[record]]
substance_smiles = "CC(C)N(C(=O)n1oc(=O)n(CC(F)(F)F)c1=O)c1ccc(F)cc1"
measurement_type = "Rape plant response rating"
reported_value = 0

[[record]]
substance_smiles = "Cc1ccccc1-n1c(=O)on(C(=O)N(c2ccc(N(C)C)cc2)C(C)C)c1=O"
measurement_type = "Rape plant response rating"
reported_value = 0

[[record]]
substance_smiles = "CCCCn1c(=O)on(C(=O)N(c2ccc(F)cc2)C(C)C)c1=O"
measurement_type = "Rape plant response rating"
reported_value = 0

[[record]]
substance_smiles = "CCn1c(=O)on(C(=O)N(c2ccc(Cl)cc2)C(C)C)c1=O"
measurement_type = "Rape plant response rating"
reported_value = 0


Data request, read-out Rape plant response rating, for `CC(C)Cn1c(=O)on(C(=O)N(c2ccc(F)cc2)C(C)C)c1=O` 0

Entry `CC(C)N(C(=O)n1oc(=O)n(CCC(F)=C(F)F)c1=O)c1ccc(F)cc1` has what Rape plant response rating? 0

Name the reported Rape plant response rating value associated with the compound `CC(C)N(C(=O)n1oc(=O)n(Cc2ccco2)c1=O)c1ccc(F)cc1` 0

---

System: surinam grass
Experiment: Test B pre/postemergence surinam grass
Type: in vivo, Brachiaria decumbens
Conditions: Postemergence, Rate 500 g/ha; scale of 0 to 10 where 0 is no effect and 10 is complete control
Protocol: […] At the same time, these crop and weed species were also treated with postemergence applications of test chemicals formulated in the same manner. […] Treated plants and controls were maintained in a greenhouse for twelve to sixteen days, after which all species were compared to controls and visually evaluated. […]
Measurement Type: B. signalgrass plant response rating

Example results:
[[record]]
molecule = "CC(C)N(C(=O)n1oc(=O)n(CCCl)c1=O)c1ccc(Cl)cc1 [Compound 474]"
measurement_type = "B. signalgrass plant response rating"
reported_value = 4

[[record]]
molecule = "CC(C)N(C(=O)n1oc(=O)n(CCC[Si](C)(C)C)c1=O)c1ccc(F)cc1 [Compound 461]"
measurement_type = "B. signalgrass plant response rating"
reported_value = 0


Now let's try a different one.
For the molecule CC(C)N(C(=O)n1oc(=O)n(CNC(=O)c2ccccc2)c1=O)c1ccc(F)cc1 [Compound 445] , what B. signalgrass plant response rating is on record? 0

---

Tested on: bedstraw
Experiment: Test B pre/postemergence bedstraw
Assay type: in vivo, Galium aparine
Details: Preemergence, Rate 500 g/ha; scale 0 (no effect) to 10 (complete control)
A collection of compounds and their measured Bedstraw plant response rating

Example results:
[[record]]
substance_smiles = "C=CCn1c(=O)on(C(=O)N(c2ccccc2)C(C)C)c1=O"
measured_on = "bedstraw"
reported_value = 3

[[record]]
substance_smiles = "CC(C)N(C(=O)n1oc(=O)n(-c2ccc(OC(F)(F)F)cc2)c1=O)C1=CCOCC1"
measured_on = "bedstraw"
reported_value = 0

[[record]]
substance_smiles = "Cc1ccccc1-n1c(=O)on(C(=O)N(c2ccc(C#N)cc2)C(C)C)c1=O"
measured_on = "bedstraw"
reported_value = 0


Tell me reported Bedstraw plant response rating for `CCN(CC)C(=O)n1oc(=O)n(-c2cccc3c2CCCC3)c1=O` , tested with bedstraw. 0

Value wanted: Bedstraw plant response rating (bedstraw) of entry `Cc1ccccc1Cn1c(=O)on(C(=O)N(c2ccc(F)cc2)C(C)C)c1=O` 2

---

Below is a list of entries, each paired with its recorded Plant response rating, B. signalgrass value.
System: surinam grass
Experiment: Test B pre/postemergence surinam grass
Format: in vivo, Brachiaria decumbens
Conditions: Preemergence, Rate 500 g/ha; scale of 0 to 10 where 0 is no effect and 10 is complete control

Consider the following illustrative entries.
[[record]]
compound = "CC(C)N(C(=O)n1oc(=O)n(CC(=O)C2CCC2)c1=O)c1ccccc1 [Compound 641]"
measurement_type = "Plant response rating, B. signalgrass"
reported_value = 8

[[record]]
compound = "CC(C)N(C(=O)n1oc(=O)n(CC2(C)COC2)c1=O)c1ccc(F)cc1 [Compound 226]"
measurement_type = "Plant response rating, B. signalgrass"
reported_value = 10

[[record]]
compound = "C=CCn1c(=O)on(C(=O)N(c2ccc(F)cc2)C2CCC2)c1=O [Compound 194]"
measurement_type = "Plant response rating, B. signalgrass"
reported_value = 3

[[record]]
compound = "CCCCCC#CCn1c(=O)on(C(=O)N(c2ccc(F)cc2)C(C)C)c1=O [Compound 254]"
measurement_type = "Plant response rating, B. signalgrass"
reported_value = 0


# input for lookup
Requested read-out: Plant response rating, B. signalgrass. Entry: CC(C)N(C(=O)n1oc(=O)n(CCC(F)=C(F)F)c1=O)c1ccc(F)cc1 [Compound 218] 7

---

System: purple nutsedge
Assay: Test B pre/postemergence purple nutsedge
Assay type: in vivo, Cyperus rotundus
Settings: Preemergence, Rate 250 g/ha; scale of 0 to 10 where 0 is no effect and 10 is complete control
Protocol: […] At the same time, these crop and weed species were also treated with postemergence applications of test chemicals formulated in the same manner. […] Treated plants and controls were maintained in a greenhouse for twelve to sixteen days, after which all species were compared to controls and visually evaluated. […]
Measurement Type: Plant response rating, Nutsedge
Answer using only a numeral; do not append any unit.

[[record]]
substance_smiles = "CCc1noc(CC)c1-n1c(=O)on(C(=O)N(c2ccc(F)cc2)C(C)C)c1=O"
measured_on = "purple nutsedge"
measurement_type = "Plant response rating, Nutsedge"
reported_value = 0

[[record]]
substance_smiles = "Cc1ccccc1-n1c(=O)on(C(=O)N(C2=CCOCC2)C(C)C)c1=O"
measured_on = "purple nutsedge"
measurement_type = "Plant response rating, Nutsedge"
reported_value = 0

[[record]]
substance_smiles = "Cc1ccccc1-n1c(=O)on(C(=O)N(c2ccc(F)cc2)C(C)C)c1=O"
measured_on = "purple nutsedge"
measurement_type = "Plant response rating, Nutsedge"
reported_value = 0

[[record]]
substance_smiles = "CC(C)N(C(=O)n1oc(=O)n(-c2cc(Cl)cc(Cl)c2)c1=O)C1=CCOCC1"
measured_on = "purple nutsedge"
measurement_type = "Plant response rating, Nutsedge"
reported_value = 0

[[record]]
substance_smiles = "COc1ccc(-n2c(=O)on(C(=O)N(c3ccc(F)cc3)C(C)C)c2=O)c(C)c1"
measured_on = "purple nutsedge"
measurement_type = "Plant response rating, Nutsedge"
reported_value = 0

[[record]]
substance_smiles = "Cc1nn(C)c(C)c1-n1c(=O)on(C(=O)N(c2ccccc2)C(C)C)c1=O"
measured_on = "purple nutsedge"
measurement_type = "Plant response rating, Nutsedge"
reported_value = 0

[[record]]
substance_smiles = "CCCn1c(=O)on(C(=O)N(c2ccc(Cl)cc2)C(C)C)c1=O"
measured_on = "purple nutsedge"
measurement_type = "Plant response rating, Nutsedge"
reported_value = 0


Consider the additional compound presented here.
What value of Plant response rating, Nutsedge has been recorded for this entry: `CCN(C(=O)n1oc(=O)n(-c2ccc(C)cc2C)c1=O)C1CCCCC1` 0

---

Test system: cocklebur
Assay: Test B pre/postemergence cocklebur
Format: in vivo, Xanthium strumarium
Conditions: Rate 125 g/ha, Postemergence; scale 0 to 10
Measurement Type: Cocklebur plant response rating
Keep the answer to the number alone.

Below, 2 compounds whose answers are already recorded.
[[record]]
compound = "CC(C)N(C(=O)n1oc(=O)n(CC(=O)OC(C)(C)C)c1=O)c1ccc(F)cc1 [Compound 265]"
reported_value = 0

[[record]]
compound = "CC(C)N(C(=O)n1oc(=O)n(CC#C[Si](C)(C)C)c1=O)c1ccc(F)cc1 [Compound 213]"
reported_value = 0


Now for another entry.
Requested field: Cocklebur plant response rating. Item: Cc1ccccc1-n1c(=O)on(C(=O)N(c2ccc(N(C)C)cc2)C(C)C)c1=O [Compound 237] 0
